Hi there, I'd appreciate the recorded TGI for every entry that follows.
- Tested on: BT-549 breast
- PROTOCOL_TEXT: NCI tumour cell line growth inhibition, 48 h

As a guide, the following entries are already answered.
COMPOUND	ENDPOINT	MEASURED_RESULT
O=C1Oc2ccccc2C(=O)/C1=C/N1C(=O)CNC1=S	TGI	> 100 µM
COc1cccc(C23CCN(C)C(CC(O)C2)C3)c1OC (stereo unspecified)	TGI	> 100 µM
CC(Oc1ccccc1Cl)C(=O)NN1C(=O)CC(=O)N(c2ccc(Cl)cc2)C1=S (stereo unspecified)	TGI	> 100 µM
CC1=NN(c2nc(N)nc(/C(C#N)=C\c3ccc(-c4ccc([N+](=O)[O-])cc4)o3)n2)C(C)(C)C1	TGI	> 100 µM
COc1cc(C2c3cc4c(cc3C(=O)C3CCC(=O)N32)OCO4)cc(OC)c1O (stereo unspecified)	TGI	> 50 µM

Each of the following entries comes with a recorded value; kindly state TGI for each.
1. Nc1ccccc1C(=O)N=Nc1c(O)[nH]c2ccccc12
2. CC(=O)OCC1OC(n2c3c(cc(C#N)c2=S)CCCC3)C(OC(C)=O)C(OC(C)=O)C1OC(C)=O (stereo unspecified)
3. O=NNc1ccc(S(=O)(=O)c2ccc3ccccc3c2)cn1
4. COc1ccc(C2=Nn3c(nnc3-n3nc(C)cc3C)SC2)cc1
5. Cc1ccc(-c2cc(-c3ccc(Cl)cc3)nc(/N=C3\C(=O)N(CN(C)C)c4ccccc43)n2)cc1
6. COC(=O)C(=O)Nc1cc2c3c(c1)Oc1cccc4c1C3(C)c1c(cccc1O2)O4
7. Cc1ccc(C(=O)Oc2ccccc2)cc1N=NN(C)C

1. > 100 µM
2. > 100 µM
3. > 100 µM
4. > 100 µM
5. > 100 µM
6. > 100 µM
7. > 100 µM

Each of the following entries comes with a recorded value; kindly state TGI for each.
1. CCOC(=O)c1c(CN2CCN(C)CC2)nc2ccc(Cl)cc2c1-c1ccccc1
2. O=C(NCCNCCNC(=O)c1cc(-c2ccccc2)nc2ccccc12)c1cc(-c2ccccc2)nc2ccccc12
3. O=C(Nc1ccccc1)OCCN=C1c2ccccc2CCc2ccccc21
4. C=C1C(=O)O[C@H]2C1C[C@H](O)[C@@]1(C)OC1CC[C@@]1(C)O[C@H]21 (stereo partly specified)
5. CCOc1ccc2cc(-c3nn(CC4CCNCC4)c4ncnc(N)c34)ccc2c1
6. Cn1nnc2c3c(N(CCO)CCO)ccnc3ccc21
7. C[C@@H]1CC[C@H]2[C@H](C)C(OC3O[C@@H]4O[C@@]5(C)CC[C@H]6[C@H](C)CC[C@@H]([C@@H]3C)[C@@]46O5)O[C@@H]3O[C@@]4(C)CC[C@@H]1[C@]32O4 (stereo partly specified)

1: 20.8 µM; 2: 28.6 µM; 3: 42.1 µM; 4: 26.9 µM; 5: 27.6 µM; 6: > 100 µM; 7: > 100 µM

Each of the following entries comes with a recorded value; kindly state TGI for each.
1. COc1ccc(C(O)c2cc3c(N)c(C(=O)Nc4cccc(Br)c4C)sc3nc2C)cc1 (stereo unspecified)
2. CN(C)c1ccc(-c2ccc(-c3ccc(C(=N)N)cn3)o2)cc1
3. CC1=CCC(C(C)(C)NC(=O)c2ccccc2)C/C1=N/O (stereo unspecified)

1. 15.4 µM
2. 3.5 µM
3. > 100 µM

Each of the following entries comes with a recorded value; kindly state TGI for each.
1. O=C1CSC(c2ccccc2O)N1c1ccc(-n2c(-c3ccccc3)nc3ccccc3c2=O)cc1 (stereo unspecified)
2. Cc1ccc(S(=O)(=O)N2CCNCCN(S(=O)(=O)c3ccc(C)cc3)CCNCC2)cc1
3. O=[N+]([O-])/C=C/c1ccc(Cl)cc1[N+](=O)[O-]
4. Clc1ccc(CN2CCCN(Cc3ccc(Cl)cc3)C2c2cc3ccccc3c3ccccc23)cc1
5. CC(C)(C)OC(=O)N1CCCC1C(=O)NC(c1ccccc1)c1ccccc1 (stereo unspecified)
6. Nc1nc(SCC(=O)c2ccc(Br)cc2)c2[nH]cnc2n1
7. COc1ccc(-c2csc(Nc3cccc(-c4csc(C)n4)c3)n2)cc1

["61.5 µM", "47.1 µM", "10.2 µM", "> 100 µM", "> 100 µM", "> 100 µM", "40.3 µM"]

Each of the following entries comes with a recorded value; kindly state TGI for each.
1. Cc1cc(-c2nc3c(F)cccc3s2)ccc1N
2. CC1(C)C2CCC13C(=O)C1OC3(C2)C2C(=O)c3c(ccc4c3ccc3ccccc34)C(=O)C12 (stereo unspecified)

1: > 100 µM; 2: > 100 µM
